A collection of compounds and their measured IC50
target: H1047R PIK3CA enzyme (Homo sapiens, UniProt P42336, H1047R); assay: ADP-Glo Biochemical PIK3CA Kinase Assay
Sequence (P42336 whole entry H1047R): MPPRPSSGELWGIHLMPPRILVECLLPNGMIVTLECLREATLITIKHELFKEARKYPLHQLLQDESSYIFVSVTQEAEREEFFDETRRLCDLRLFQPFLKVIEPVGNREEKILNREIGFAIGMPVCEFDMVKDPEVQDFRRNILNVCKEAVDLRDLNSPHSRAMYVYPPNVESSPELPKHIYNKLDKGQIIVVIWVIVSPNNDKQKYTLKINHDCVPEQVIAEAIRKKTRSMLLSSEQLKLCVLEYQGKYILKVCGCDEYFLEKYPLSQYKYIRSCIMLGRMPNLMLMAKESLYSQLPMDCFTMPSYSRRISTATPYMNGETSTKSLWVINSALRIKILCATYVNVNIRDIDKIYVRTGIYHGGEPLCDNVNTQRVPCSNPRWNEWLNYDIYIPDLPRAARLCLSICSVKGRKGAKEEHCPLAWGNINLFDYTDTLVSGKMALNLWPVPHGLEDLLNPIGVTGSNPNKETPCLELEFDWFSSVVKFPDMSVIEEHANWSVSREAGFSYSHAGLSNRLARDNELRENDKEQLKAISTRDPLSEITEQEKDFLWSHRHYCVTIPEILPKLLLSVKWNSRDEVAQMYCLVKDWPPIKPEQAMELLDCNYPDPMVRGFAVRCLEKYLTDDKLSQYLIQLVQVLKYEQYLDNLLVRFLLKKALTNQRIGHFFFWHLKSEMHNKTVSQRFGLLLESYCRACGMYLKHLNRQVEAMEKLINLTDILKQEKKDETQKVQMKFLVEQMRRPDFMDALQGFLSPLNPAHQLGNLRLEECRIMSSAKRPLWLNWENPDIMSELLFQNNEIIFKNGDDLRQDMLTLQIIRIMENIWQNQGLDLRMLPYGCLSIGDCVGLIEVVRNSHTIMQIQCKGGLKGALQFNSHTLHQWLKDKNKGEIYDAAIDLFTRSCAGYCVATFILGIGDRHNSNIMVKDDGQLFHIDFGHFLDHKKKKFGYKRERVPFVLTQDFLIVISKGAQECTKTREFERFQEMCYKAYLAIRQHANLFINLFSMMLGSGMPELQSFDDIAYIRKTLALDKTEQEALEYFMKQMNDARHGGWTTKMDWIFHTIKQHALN
Sequence (P27986 whole entry partner): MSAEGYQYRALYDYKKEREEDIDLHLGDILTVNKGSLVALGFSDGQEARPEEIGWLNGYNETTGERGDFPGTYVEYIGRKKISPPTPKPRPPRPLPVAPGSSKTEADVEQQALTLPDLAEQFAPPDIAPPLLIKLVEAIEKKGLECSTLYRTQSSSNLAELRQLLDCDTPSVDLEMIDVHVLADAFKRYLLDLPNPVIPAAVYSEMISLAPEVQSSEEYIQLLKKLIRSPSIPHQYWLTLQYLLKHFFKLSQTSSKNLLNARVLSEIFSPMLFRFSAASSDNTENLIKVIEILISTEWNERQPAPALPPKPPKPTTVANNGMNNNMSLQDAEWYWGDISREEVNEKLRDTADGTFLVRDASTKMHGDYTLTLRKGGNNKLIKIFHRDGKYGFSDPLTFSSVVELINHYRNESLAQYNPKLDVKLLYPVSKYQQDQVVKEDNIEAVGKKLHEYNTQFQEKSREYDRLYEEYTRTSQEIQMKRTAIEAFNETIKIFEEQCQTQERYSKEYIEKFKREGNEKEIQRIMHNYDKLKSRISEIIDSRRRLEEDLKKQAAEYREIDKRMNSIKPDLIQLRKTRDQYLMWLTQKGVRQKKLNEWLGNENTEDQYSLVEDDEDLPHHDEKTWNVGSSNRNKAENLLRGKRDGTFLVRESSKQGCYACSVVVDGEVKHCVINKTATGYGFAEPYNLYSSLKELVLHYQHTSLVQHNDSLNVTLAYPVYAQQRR

The following compounds have reported results that may help.
[
  {
    "compound": "O=C(Nc1cc(-c2nccs2)cc2c1C(c1cc(F)ccc1Cl)NC2=O)c1cc(F)cc(C(F)(F)F)c1 (stereo not shown)",
    "recorded-value": "≤ 0.1 µM"
  },
  {
    "compound": "O=C(Nc1cc(-c2ccc3nc(C(F)F)nn3c2)cc2c1[C@@H](c1cc(F)ccc1Cl)NC2=O)c1cc(F)cc(C(F)(F)F)c1",
    "recorded-value": "1 to 10 µM"
  },
  {
    "compound": "O=C(Nc1cc(-c2ccn3ncnc3c2F)cc2c1C(c1cc(F)ccc1Cl)NC2=O)c1cc(F)cc(C(F)(F)F)c1 (stereo not shown)",
    "recorded-value": "≤ 0.1 µM"
  },
  {
    "compound": "O=C1NC(c2cc(F)ccc2Cl)c2c(NC(=O)C34CC5CC(F)(CC(F)(C5)C3)C4)cccc21 (stereo not shown)",
    "recorded-value": "0.1 to 0.5 µM"
  },
  {
    "compound": "O=C1NCc2c(NC(=O)N3CCCCC3Cc3ccccc3)cccc21 (stereo not shown)",
    "recorded-value": "10 to 100 µM"
  }
]

What does the record list as IC50 for CC(C)(O)Cc1cc(NC(=O)c2cc(F)cc(C(F)(F)F)c2)c2c(c1)C(=O)N[C@H]2c1cc(F)ccc1Cl ? ≤ 0.1 µM

What does the record list as IC50 for Cn1nccc1-c1cc(NC(=O)c2cc(F)cc(C(F)(F)F)c2)c2c(c1)C(=O)N[C@@H]2c1cc(F)ccc1Cl ? 1 to 10 µM

====

Target: H1047R PIK3CA enzyme (Homo sapiens, UniProt P42336, H1047R)
Test: ADP-Glo Biochemical PIK3CA Kinase Assay
Protocol: Compounds to be assayed were plated in 16 doses of 1:2 serial dilutions (20 nL volume each well) on a 1536-well plate, and the plate warmed to room temperature. […] To the well was added 1 μL of 200 μM ATP and 20 μM of diC8-PIP2 in Substrate Assay Buffer (50 mM HEPES pH7.4, 50 mM NaCl, 5 mM DTT and 0.03% CHAPS) to start the reaction, and the plate was shaken for 10 seconds, then spun briefly at 1500 rpm, and then incubated for 60 minutes at room temperature. […]
readout-label: IC50

[
  {
    "molecule": "O=C(Nc1cc(Nc2cc[nH]n2)cc2c1C(c1cc(F)ccc1Cl)NC2=O)c1cc(F)cc(C(F)(F)F)c1 (stereo not shown) [Compound I-1112]",
    "readout-label": "IC50",
    "recorded-value": "≤ 100 nM"
  },
  {
    "molecule": "O=C(Nc1cc(Cc2ccc3c(c2)CCNC3=O)cc2c1[C@H](c1cc(F)ccc1Cl)NC2=O)c1cc(F)cc(C(F)(F)F)c1 [Compound I-1626]",
    "readout-label": "IC50",
    "recorded-value": "≤ 100 nM"
  },
  {
    "molecule": "Nc1c(Cl)cc(F)cc1C(=O)Nc1cc(Br)cc2c1C(c1cc(F)ccc1Cl)NC2=O (stereo not shown) [Compound I-843]",
    "readout-label": "IC50",
    "recorded-value": "100 to 500 nM"
  },
  {
    "molecule": "Cn1ncc(-c2cc(NC(=O)c3cc(F)cc(C(F)(F)F)c3)c3c(c2)C(=O)NC3c2cc(F)ccc2Cl)c1C#N (stereo not shown) [Compound I-1699]",
    "readout-label": "IC50",
    "recorded-value": "≤ 100 nM"
  },
  {
    "molecule": "O=C1N[C@@H](c2cc(F)ccc2Cl)c2c(NC(=O)[C@@H]3CCCCN3)cc(-c3ccc4ncnn4c3)cc21 (racemic) [Compound I-1780]",
    "readout-label": "IC50",
    "recorded-value": "10000 to 100000 nM"
  }
]

What does the record list as IC50 for Cn1cnc(Nc2cc(NC(=O)c3cc(F)cc(C(F)(F)F)c3)c3c(c2)C(=O)NC3c2cc(F)ccc2Cl)n1 (stereo not shown) [Compound I-976] ? ≤ 100 nM

What does the record list as IC50 for O=C(Nc1cc(Oc2ncccn2)cc2c1C(c1cc(F)ccc1Cl)NC2=O)c1cc(F)cc(C(F)(F)F)c1 (stereo not shown) [Compound I-1202] ? 100 to 500 nM

What does the record list as IC50 for C[C@@](O)(CC#N)c1cc(NC(=O)c2cc(F)cc(C(F)(F)F)c2)c2c(c1)C(=O)N[C@H]2c1cc(F)ccc1Cl (single isomer, unassigned) [Compound I-1395] ? ≤ 100 nM

What does the record list as IC50 for Cc1ccccc1C1NC(=O)c2cc(CO)cc(NC(=O)c3nsc4ccccc34)c21 (stereo not shown) [Compound I-131] ? ≤ 100 nM

What does the record list as IC50 for Cc1ccccc1[C@@H]1NC(=O)c2cccc(NC(=O)c3coc4c(F)cc(F)cc34)c21 [Compound I-98] ? 100 to 500 nM

What does the record list as IC50 for O=C(Nc1cccc2c1C(c1ccnc(Cl)c1)NC2=O)c1cc(F)cc(C(F)(F)F)c1 (stereo not shown) [Compound I-630] ? 10000 to 100000 nM

What does the record list as IC50 for O=C(Nc1cc(-c2cnn(S(=O)(=O)C(F)F)c2)cc2c1[C@@H](c1cc(F)ccc1Cl)NC2=O)c1cc(F)cc(C(F)(F)F)c1 [Compound I-2092] ? 100 to 500 nM

What does the record list as IC50 for O=C(Nc1cc(-c2ccc3nc(Cl)nn3c2)cc2c1[C@H](c1cc(F)ccc1Cl)NC2=O)c1cc(F)cc(C(F)(F)F)c1 [Compound I-1693] ? ≤ 100 nM
